Consider the following compounds; for each one, report its Ki.
# target_of_assay: Cysteinyl leukotriene receptor 1 (Cavia porcellus, UniProt Q2NNR5)
# measurement_description: Binding affinity to the leukotriene receptor (LTD4) from guinea pig lung parenchymal membranes assayed using [3H]LTD4 as radioligand
# Type: tissue-based, Lung parenchyma
Give the quantity in nM, number only.

Report Ki for `COc1cc(C(=O)NS(=O)(=O)c2ccccc2C)ccc1Cc1cn(C)c2ccc(C(=O)N(C)CC(C)C)cc12` please.
63.1

Next up: CCCCCC(C)CNC(=O)c1ccc2c(c1)c(Cc1ccc(C(=O)NS(=O)(=O)c3ccccc3C)cc1OC)cn2C (stereo unspecified)
10

Next up: `CCCCN(CCCC)C(=O)c1ccc2c(c1)c(Cc1ccc(C(=O)NS(=O)(=O)c3ccccc3C)cc1OC)cn2C`
79.4

Next up: `COc1cc(C(=O)NS(=O)(=O)c2ccccc2C)ccc1Cc1cn(C)c2ccc(C(=O)NC3CCCCC3)cc12`
100

Next up: `CCC(CC)CNC(=O)c1ccc2c(c1)c(Cc1ccc(C(=O)NS(=O)(=O)c3ccccc3C)cc1OC)cn2CC`
1

Next up: `CCC(CC)CNC(=O)c1ccc2c(c1)c(Cc1ccc(C(=O)NS(=O)(=O)c3ccccc3C)cc1OC)cn2C1CCCC1`
2.51

Next up: `COc1cc(C(=O)NS(=O)(=O)c2ccccc2C)ccc1Cc1cn(C)c2ccc(C(=O)NCCc3ccccc3)cc12`
79.4

Next up: `COc1cc(C(=O)NS(=O)(=O)c2ccccc2C)ccc1Cc1cn(C)c2ccc(C(=O)NCC(C)(C)C)cc12`
15.8

Next up: `CCc1cn(Cc2ccc(C(=O)NS(=O)(=O)c3ccccc3C)cc2OC)c2cc(C(=O)NCC(CC)CC)ccc12`
3.16

Next up: `COc1cc(C(=O)NS(=O)(=O)c2ccccc2C)ccc1Cc1cn(C)c2ccc(C(=O)NCCC(C)C)cc12`
15.8

Next up: `CCCC1CCN(C(=O)c2ccc3c(c2)c(Cc2ccc(C(=O)NS(=O)(=O)c4ccccc4C)cc2OC)cn3C)CC1`
100

Next up: CCCCC(CC)NC(=O)c1ccc2c(c1)c(Cc1ccc(C(=O)NS(=O)(=O)c3ccccc3C)cc1OC)cn2C (stereo unspecified)
126

Next up: `COc1cc(C(=O)NS(=O)(=O)c2ccccc2C)ccc1Cn1cc(C)c2ccc(C(=O)NCC3CCCC3)cc21`
10

Next up: CCCCCCC(C)CNC(=O)c1ccc2c(c1)c(Cc1ccc(C(=O)NS(=O)(=O)c3ccccc3C)cc1OC)cn2C (stereo unspecified)
7.94

Next up: `CCC(CC)CNC(=O)c1ccc2ccn(Cc3ccc(C(=O)NS(=O)(=O)c4ccccc4C)cc3OC)c2c1`
12.6

Next up: `CCC(CC)CNC(=O)c1ccc2c(C)cn(Cc3ccc(C(=O)NS(=O)(=O)c4ccccc4C)cc3OC)c2c1`
2.51

====

# target_of_assay: Cysteinyl leukotriene receptor 1 (Cavia porcellus) (UniProt Q2NNR5)
# measurement_description: Binding affinity against leukotriene receptor (LTE4) from guinea pig tracheal spirals
# Type: tissue-based
Category | rule: reported pKB within range, see LOW (below 8), MID (8 to below 9), HIGH (9 or more)

Class label required: `C=CCn1cc(Cc2ccc(C(=O)NS(=O)(=O)c3ccccc3C)cc2OC)c2cc(C(=O)NCC3CCCC3)ccc21`
MID

Next up: `COc1cc(C(=O)NS(=O)(=O)c2ccccc2C)ccc1Cn1cc(C)c2ccc(NC(=O)CC3CCCC3)cc21`
HIGH

Next up: `COc1cc(C(=O)NS(=O)(=O)c2ccccc2C)ccc1Cc1cn(C)c2ccc(C(=O)NCC(C)(C)C)cc12`
LOW

Next up: CCCCCCC(C)CNC(=O)c1ccc2c(c1)c(Cc1ccc(C(=O)NS(=O)(=O)c3ccccc3C)cc1OC)cn2C (stereo not drawn)
LOW

Next up: `COc1cc(C(=O)NS(=O)(=O)c2ccccc2C)ccc1Cc1cn(C)c2ccc(NC(=O)CC3CCCC3)cc12`
HIGH

Next up: `COc1cc(C(=O)NS(=O)(=O)c2ccccc2C)ccc1Cc1cn(C)c2ccc(C(=O)NCC3CCCC3)cc12`
MID

Next up: `CCCn1cc(Cc2ccc(C(=O)NS(=O)(=O)c3ccccc3)cc2OC)c2cc(C(=O)NCC(C)C)ccc21`
LOW

Next up: `CCCn1cc(Cc2ccc(C(=O)NS(=O)(=O)c3ccccc3C)cc2OC)c2cc(C(=O)NCC3CCCC3)ccc21`
MID

Next up: CCC(C)CNC(=O)c1ccc2c(c1)c(Cc1ccc(C(=O)NS(=O)(=O)c3ccccc3C)cc1OC)cn2C (stereo not drawn)
MID

====

# target_of_assay: Cysteinyl leukotriene receptor 1 (Cavia porcellus, UniProt Q2NNR5)
# Sequence (Q2NNR5 whole entry): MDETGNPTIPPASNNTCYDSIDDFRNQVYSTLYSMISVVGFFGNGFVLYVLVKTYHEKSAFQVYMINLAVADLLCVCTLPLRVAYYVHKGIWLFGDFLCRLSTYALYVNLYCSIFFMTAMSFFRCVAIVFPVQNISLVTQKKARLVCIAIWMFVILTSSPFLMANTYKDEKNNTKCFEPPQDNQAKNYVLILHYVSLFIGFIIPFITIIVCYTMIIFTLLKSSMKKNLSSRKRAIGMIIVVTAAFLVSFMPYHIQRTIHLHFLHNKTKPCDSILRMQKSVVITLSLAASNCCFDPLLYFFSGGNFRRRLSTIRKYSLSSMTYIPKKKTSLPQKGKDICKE
# measurement_description: Binding affinity against leukotriene receptor (LTD4) from guinea pig lung parenchymal membranes using [3H]LTD4 as radio ligand
# Type: tissue-based, Lung parenchyma
outcome_measure: Ki (nM)
Give the quantity in nM, number only.

Report Ki for `COc1cc(C(=O)NS(=O)(=O)c2ccccc2C)ccc1Cc1cn(C)c2ccc(C(=O)NCC(C)C)cc12` please.
6.31

Next up: `CCC(CC)CNC(=O)c1ccc2c(CC(C)C)cn(Cc3ccc(C(=O)NS(=O)(=O)c4ccccc4C)cc3OC)c2c1`
6.31

Next up: `CCCn1cc(Cc2ccc(C(=O)NS(=O)(=O)c3ccccc3)cc2OC)c2cc(C(=O)NCC(C)C)ccc21`
7.94

Next up: `CCC(CC)CNC(=O)c1ccc2c(c1)c(Cc1ccc(C(=O)NS(=O)(=O)c3ccccc3Cl)cc1OC)cn2C`
6.31

====

# target_of_assay: Cysteinyl leukotriene receptor 1 (Cavia porcellus)
# measurement_description: Binding affinity against leukotriene receptor (LTE4) from guinea pig tracheal spirals
# Format: tissue-based
Consider the following compounds; for each one, report its pKB.

Report pKB for `CCC(CC)CNC(=O)c1ccc2c(CC(C)C)cn(Cc3ccc(C(=O)NS(=O)(=O)c4ccccc4C)cc3OC)c2c1` please.
8.2

Next up: `CCC(CC)CNC(=O)c1ccc2c(c1)c(Cc1ccc(C(=O)NS(=O)(=O)c3ccccc3C)cc1OC)cn2C`
8

Next up: `CCc1cn(Cc2ccc(C(=O)NS(=O)(=O)c3ccccc3C)cc2OC)c2cc(C(=O)NCC(CC)CC)ccc12`
8.2

Next up: `CCCn1cc(Cc2ccc(C(=O)NS(=O)(=O)c3ccccc3C)cc2OC)c2cc(C(=O)NCC(CC)CC)ccc21`
8.9

The origin of these recorded values is ChEMBL document CHEMBL1126589.
